protocol_text: Kinetics of N-desmethylcitalopram formation from citalopram in common carp S9
Format: in vitro ADME, common carp (Cyprinus carpio)
condition_description: common carp (Cyprinus carpio), hepatic S9 fraction, Michaelis-Menten fit, citalopram 0.01-100 μM

compound: CNCCCC1(c2ccc(F)cc2)OCc2cc(C#N)ccc21 (stereo not shown)
unit_of_measurement: µM
Km: 29.7
